Assay: Physicochemical properties (Log P, pKa, solubility vs. pH) for PBPK model
Where a name gives a salt, the structure may show the parent alone.
Assay metric: logP

CCNCCc1ccc(CN(CC)c2cc(OC)ccc2[C@@H]2CCc3cc(O)ccc3C2)cc1 [Elacestrant Dihydrochloride] : 5.56
